Data provenance is paper PMC10874764.

We begin with a simple list: items and their reported Stability S.
Experiment: Stability of each chemical component in rat plasma
Format: in vitro ADME
Conditions: 10 ng/mL, −20 °C free for 15 d
Field: numeric (%). Do not append units.

query: Answer with the recorded Stability S for the compound listed here: O=C(O)c1cc(O)c2c(c1)C(=O)c1cccc(O)c1C2=O [Rh, Rhein]
result: 109.40

query: Write down Stability S measured for item COc1cc(O)c2c(c1)C(=O)c1cc(C)cc(O)c1C2=O [Ph, Physcion]
result: 105

query: Entry O=C1c2cccc(O)c2C(=O)c2c(O)cc(CO)cc21 [Ae, Aloe emodin] needs its Stability S filled in; supply it.
result: 88.6

query: Quote Stability S reported for Cc1cc(O)c2c(c1)C(=O)c1cc(O)cc(O)c1C2=O [Em, Emodin] please.
result: 98.50

query: Return value of Stability S for input Cc1cc(O)c2c(c1)C(=O)c1cccc(O)c1C2=O [Ch, Chrysophanol] , no commentary.
result: 105.40

---

Assay: Pharmacokinetics of five components in control
Type: in vivo, SD rats
Conditions: male, SD, rat, plasma, po, 1.5 mL/200 g, Cmax, RhRR of control group; single oral 1.5 mL/200 g RhRR decoction; plasma; n = 6
endpointLabel: Cmax (ng/mL)
Give the quantity in ng/mL, number only.

query: Indicate the recorded Cmax value for this molecule: Cc1cc(O)c2c(c1)C(=O)c1cc(O)cc(O)c1C2=O
result: 11.2

query: Quickly give me recorded Cmax for O=C(O)c1cc(O)c2c(c1)C(=O)c1cccc(O)c1C2=O
result: 434

query: Retrieve Cmax measured for COc1cc(O)c2c(c1)C(=O)c1cc(C)cc(O)c1C2=O and print it.
result: 54.4

query: Dear colleague, please send me the reported Cmax for O=C1c2cccc(O)c2C(=O)c2c(O)cc(CO)cc21 when you can.
result: 101

query: Quote Cmax reported for Cc1cc(O)c2c(c1)C(=O)c1cccc(O)c1C2=O please.
result: 164

---

Assay: Stability of each chemical component in rat plasma
Assay type: in vitro ADME
Details: 10 ng/mL, −4 °C for 14 d
endpointLabel: Stability S (%)
Your answer should be a plain number; it is taken to be in %.

Example entries and their recorded answers appear below.
Cc1cc(O)c2c(c1)C(=O)c1cc(O)cc(O)c1C2=O ... 105
O=C(O)c1cc(O)c2c(c1)C(=O)c1cccc(O)c1C2=O ... 95.90
Cc1cc(O)c2c(c1)C(=O)c1cccc(O)c1C2=O ... 99.70
COc1cc(O)c2c(c1)C(=O)c1cc(C)cc(O)c1C2=O ... 99.50

Alright, here's another compound for you.
query: Please indicate Stability S recorded for O=C1c2cccc(O)c2C(=O)c2c(O)cc(CO)cc21
result: 107

---

Assay: Stability of each chemical component in rat plasma
Assay type: in vitro ADME
Details: 100 ng/mL, room temperature for 24 h
Overview of reported Stability S across a group of molecules:
Please answer in the form of a number followed by its unit of measurement.

Examples from the recorded data:
O=C(O)c1cc(O)c2c(c1)C(=O)c1cccc(O)c1C2=O ... 112.30%
Cc1cc(O)c2c(c1)C(=O)c1cc(O)cc(O)c1C2=O ... 110.40%
O=C1c2cccc(O)c2C(=O)c2c(O)cc(CO)cc21 ... 88.50%

query: Provide only the value of recorded Stability S for Cc1cc(O)c2c(c1)C(=O)c1cccc(O)c1C2=O
result: 105%

query: Specify Stability S for COc1cc(O)c2c(c1)C(=O)c1cc(C)cc(O)c1C2=O and stop.
result: 105%

---

Format: in vivo, SD rats
Conditions: male, SD, rat, plasma, po, 1.5 mL/200 g
endpointLabel: Tmax (h)
Field format: number, assumed h, no unit text.

Example entries begin here.
O=C1c2cccc(O)c2C(=O)c2c(O)cc(CO)cc21 ... 2
O=C(O)c1cc(O)c2c(c1)C(=O)c1cccc(O)c1C2=O ... 8
Cc1cc(O)c2c(c1)C(=O)c1cccc(O)c1C2=O ... 0.5

API: the following record is the query input.
query: Give a short answer stating reported Tmax for COc1cc(O)c2c(c1)C(=O)c1cc(C)cc(O)c1C2=O .
result: 0.25
